Hey, just so you know, these numbers are from paper PMC9371974.

Quick reference: pKd of the listed items.
tested_on: full-length, recombinant mouse prion protein (rmPrP23-231) (Mus musculus, UniProt P04925)
Sequence (P04925 23-231): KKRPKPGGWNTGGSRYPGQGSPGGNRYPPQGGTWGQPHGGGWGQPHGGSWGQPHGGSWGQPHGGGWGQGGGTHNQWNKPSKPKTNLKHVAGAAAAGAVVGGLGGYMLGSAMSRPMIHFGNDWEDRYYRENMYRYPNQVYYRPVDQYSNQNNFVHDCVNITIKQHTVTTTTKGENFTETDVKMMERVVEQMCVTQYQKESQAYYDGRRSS
assay: FRET or BRET
experimental_conditions: both partners purified
pKd: −log10 of the molar value.

{"columns": ["binder", "pKd"],
 "data": [
  ["POM1 scFv pomolog lcS91A (scFv, V domains shown) VH: QVQLQQSGTELVMPGASVKMSCKASGYTFTDYWMHWVKQRPGQGLEWIGSIDPSDSYTSHNEKFKGKATLTVDESSSTAYMQLSSLTSEDSAVYFCSRSGYGYYAMEYWGQGTSVTVSS VL: DIVLTQSPAILSVSPGERVSFSCRASQNIGTSIHWYQQRTNESPRLIIKYASESISGIPSRFSGSGSGTDFTLSINSVESEDIADYYCQQANTWPYTFGGGTKLELK", 7.03],
  ["POM1 scFv pomolog lcS32A (scFv, V domains shown) VH: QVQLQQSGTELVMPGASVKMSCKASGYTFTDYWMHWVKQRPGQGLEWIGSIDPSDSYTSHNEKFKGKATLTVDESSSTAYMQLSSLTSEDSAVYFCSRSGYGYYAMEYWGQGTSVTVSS VL: DIVLTQSPAILSVSPGERVSFSCRASQNIGTAIHWYQQRTNESPRLIIKYASESISGIPSRFSGSGSGTDFTLSINSVESEDIADYYCQQSNTWPYTFGGGTKLELK", 8.14],
  ["POM1 scFv pomolog hcY101A (scFv, V domains shown) VH: QVQLQQSGTELVMPGASVKMSCKASGYTFTDYWMHWVKQRPGQGLEWIGSIDPSDSYTSHNEKFKGKATLTVDESSSTAYMQLSSLTSEDSAVYFCSRSGAGYYAMEYWGQGTSVTVSS VL: DIVLTQSPAILSVSPGERVSFSCRASQNIGTSIHWYQQRTNESPRLIIKYASESISGIPSRFSGSGSGTDFTLSINSVESEDIADYYCQQSNTWPYTFGGGTKLELK", 8.82]
]}
